target: T1, mouse recombinant His-calmodulin, calcium-bound (mouse, UniProt P0DP26 1-149); assay: SPR, His-CaM immobilised on CM5 chip, analyte pre-incubated with 0.3 mM CaCl2
T1 construct: also called His-CaM(Ca^2+); His-CaM(Ca^+2)
assayEndpoint: Kd (nM)
Report only the number, with the unit nM understood.

For KRRWKKNFIAVSAANRFKKISSSGAL (peptide, UniProt P07313 578-603, looked up, check before use) the binder record lists Kd as 8.8
